Data provenance: patent US20170183318A1

Test system: herpes simplex virus belonging to antigenic type 2
experiment_notes: Murine model of experimental herpetic meningoencephalitis (mortality)
Assay type: in vivo, white outbred mice
reported_conditions: Mus musculus, po, 336 h
Starred links: 1 amine or outer side, 2 acyl side, 3 side chain; linkers in the order of their positions; H or OH if unused. Non-standard residues stand in square brackets, D forms with d. Residues, ends and D or L forms follow the SMILES beside them. ξ: configuration not given here. Glutaryl = O=C(CCCC(=O)[*:2])[*:1]; ξH = NC(Cc1c[nH]cn1)C(=O)O
measurement_label: mortality at 30 mg/kg (%)

• O=C(O)CCCC(=O)NCCC1CCCCN1 (stereo not drawn) [Compound 6] = 60
• O=C(O)CCCC(=O)NCCc1cocn1 [Compound 124] = 40
• O=C(O)CCCC(=O)NCCCc1c[nH]cn1 [Compound 118] = 70
• COC(=O)CNC(=O)C(Cc1c[nH]cn1)NC(=O)CCCC(=O)O (stereo not drawn) [Compound 193] (Glutaryl-[ξH]-Gly-OMe) = 25
• O=C(O)CCCC(=O)NC(Cc1c[nH]cn1)C(=O)O (stereo not drawn) [Compound 251] = 65
• NCCCC(=O)NCCCc1cccs1 [Compound 100] = 30
• O=C(O)CCCC(=O)NCCC1CCCNC1 (stereo not drawn) [Compound 5] = 35
• COC(=O)C(CO)NC(=O)C(Cc1cnc[nH]1)NC(=O)CCCC(=O)O (stereo not drawn) [Compound 149] (Glutaryl-His-Ser-OMe; configuration not given here) = 25
• O=C(O)CCCC(=O)NCCc1cn[nH]n1 [Compound 126] = 40
• CC(NC(=O)C(Cc1cnc[nH]1)NC(=O)CCCC(=O)O)C(N)=O (stereo not drawn) [Compound 92] (Glutaryl-His-Ala-NH2; configuration not given here) = 25
• CC(C)(CCC(=O)NCCc1cnc[nH]1)C(=O)O [Compound 44] = 40
• O=C(O)CCCC(=O)NCCc1cc[nH]n1 [Compound 15] = 30
• O=C(O)CCCC(=O)NCCc1cnccn1 [Compound 131] = 45
• CC(C)N(CCc1cnc[nH]1)C(=O)CCCC(=O)O [Compound 141] = 50
• Cc1csc(CCNC(=O)CCCC(=O)O)n1 [Compound 197] = 55
• O=C(O)CCCC(=O)NCCc1nc2ccccc2s1 [Compound 275] = 60
• CC(Cc1cnc[nH]1)NC(=O)CCCC(=O)O (stereo not drawn) [Compound 115] = 65
• O=C(O)CCCC(=O)NCCC1CCNCC1 [Compound 7] = 20
• O=C(O)CCCNC(=O)CCc1cnc[nH]1 [Compound 68] = 30
• O=C(O)CCCC(=O)NCCC1CCCN1 (stereo not drawn) [Compound 2] = 55
• O=C(O)CCCC(=O)NCCCc1cccs1 [Compound 34] = 70

---

Tested on: human respiratory syncytial virus (strain A2)
experiment_notes: Antiviral activity against RS virus in a murine model of suppressed immune system (lung edema)
Format: in vivo
reported_conditions: Balb/c mice, cyclophosphan-suppressed, RS-virus pneumonia; 30 mg/kg once daily for 5 days; M ± SD, n = 5; scores from possible 4
Starred links: 1 amine or outer side, 2 acyl side, 3 side chain; linkers in the order of their positions; H or OH if unused. Non-standard residues stand in square brackets, D forms with d. Residues, ends and D or L forms follow the SMILES beside them. ξ: configuration not given here. Glutaryl = O=C(CCCC(=O)[*:2])[*:1]; ξH = NC(Cc1c[nH]cn1)C(=O)O
measurement_label: Degree of lung edema on day 5 after infection, score (score)

• O=C(O)CCCC(=O)NCCc1cn2ccccc2n1 = 1.75
• O=C(O)CCCC(=O)NCCc1cc[nH]c1 = 1.05
• O=C(O)CCCC(=O)NCCC1CCCN1 (stereo not drawn) = 1.95
• O=C(O)CCCC(=O)NCCCc1cccs1 = 1.75
• O=C(O)CCCC(=O)NCCC1CCNC1 (stereo not drawn) = 1.3
• O=C(O)CCCC(=O)NCCc1cnco1 = 1.30
• COC(=O)C(NC(=O)C(Cc1cnc[nH]1)NC(=O)CCCC(=O)O)C(C)C (stereo not drawn) [Compound 89] (Glutaryl-His-Val-OMe; configuration not given here) = 0.75
• O=C(O)CCCC(=O)NCCCc1c[nH]cn1 = 1.85
• O=C(O)CCCC(=O)NCCc1nc2ccccc2s1 = 1.80
• COC(=O)C(NC(=O)C(Cc1cnc[nH]1)NC(=O)CCCC(=O)O)C(C)O (stereo not drawn) [Compound 148] (Glutaryl-His-Thr-OMe; configuration not given here) = 2.00
• NC(=O)C(CO)NC(=O)C(Cc1cnc[nH]1)NC(=O)CCCC(=O)O (stereo not drawn) [Compound 96] (Glutaryl-His-Ser-NH2; configuration not given here) = 0.35
• NC(=O)CNC(=O)C(Cc1c[nH]cn1)NC(=O)CCCC(=O)O (stereo not drawn) [Compound 184] (Glutaryl-[ξH]-Gly-NH2) = 1.00
• O=C(O)CCCC(=O)NCCC1CCCCN1 (stereo not drawn) = 0.90
• O=C(O)CCCC(=O)NCCC1CNC=N1 (stereo not drawn) = 1.95
• O=C(O)CCCC(=O)NCCC1CCCNC1 (stereo not drawn) = 1.10

---

Test system: Staphylococcus aureus
experiment_notes: Murine model of staphylococcal pneumonia (bacterial growth from lung imprints)
Type: in vivo, outbred mice
reported_conditions: 30 mg/kg orally, 5 days before and 2 days after S. aureus infection; lung imprints on Columbia agar; control 82.5
measurement_label: Bacterial growth, in %

* CC(Cc1cnc[nH]1)NC(=O)CCCC(=O)O (stereo not drawn) [Compound 115] | 25 (sporadic colonies (up to 10))
* O=C(O)CCCC(=O)NCCCc1cccs1 [Compound 34] | 50 (sporadic colonies (up to 100))
* O=C(O)CCCC(=O)NCCCc1c[nH]cn1 [Compound 118] | 50 (sporadic colonies (up to 100))
